# Test system: KP-4 (Pancreatic Carcinoma)
# ASSAY PROTOCOL: combination Emax (second highest fraction inhibited in the dose matrix, 72 h); higher = more inhibition; extreme values may be limits of the assay
Measured combination Emax of individual entries

MOLECULE	SYSTEM UNDER TEST	combination Emax
CN(CCO)CC[C@H](CSc1ccccc1)Nc1ccc(S(=O)(=O)NC(=O)c2ccc(N3CCC([C@@H](O)c4ccccc4-c4ccc(Cl)cc4)CC3)cc2)cc1S(=O)(=O)C(F)(F)F [AZD4320] + C[C@@H](Nc1cc(F)cc(F)c1)c1cc(C(=O)N(C)C)cc2c(=O)cc(N3CCOCC3)oc12 [AZD8186] (first compound max 1 µM, 7x7, partner max 3 µM)	KP-4 (Pancreatic Carcinoma)	0.273
CC1(C)CCC(CN2CCN(c3ccc(C(=O)NS(=O)(=O)c4ccc(NCC5CCOCC5)c([N+](=O)[O-])c4)c(Oc4cnc5[nH]ccc5c4)c3)CC2)=C(c2ccc(Cl)cc2)C1 [Venetoclax] + C[C@@H]1COCCN1C2=NC(=NC(=C2)C3(CC3)[S@](=N)(=O)C)C4=C5C=CNC5=NC=C4 [AZD6738] (first compound max 1 µM, 7x7, partner max 10 µM)	KP-4 (Pancreatic Carcinoma)	0.418
NC1(C(=O)N[C@@H](CCO)c2ccc(Cl)cc2)CCN(c2ncnc3[nH]ccc23)CC1 [Capivasertib] + CCN(CCO)CCCOc1ccc2c(Nc3cc(CC(=O)Nc4cccc(F)c4)[nH]n3)ncnc2c1 [AZD2811] (first compound max 10 µM, 7x7, partner max 1 µM)	KP-4 (Pancreatic Carcinoma)	0.682
Cc1c2c(nn1C)CSCc1cc(n(C)n1)CSc1cc(c3ccccc3c1)OCCCc1c(C(=O)O)n(C)c3c-2c(Cl)ccc13 [AZD5991] + C[C@@H](Nc1cc(F)cc(F)c1)c1cc(C(=O)N(C)C)cc2c(=O)cc(N3CCOCC3)oc12 [AZD8186] (first compound max 1 µM, 7x7, partner max 3 µM)	KP-4 (Pancreatic Carcinoma)	0.206
Cc1c2c(nn1C)CSCc1cc(n(C)n1)CSc1cc(c3ccccc3c1)OCCCc1c(C(=O)O)n(C)c3c-2c(Cl)ccc13 [AZD5991] + Cc1cc2ncnn2cc1Nc1ncc2c(n1)n(C1CCOCC1)c(=O)n2C [AZD7648] (first compound max 1 µM, 7x7, partner max 10 µM)	KP-4 (Pancreatic Carcinoma)	0.263
CC1(C)CCC(CN2CCN(c3ccc(C(=O)NS(=O)(=O)c4ccc(NCC5CCOCC5)c([N+](=O)[O-])c4)c(Oc4cnc5[nH]ccc5c4)c3)CC2)=C(c2ccc(Cl)cc2)C1 [Venetoclax] + C[C@@H](Nc1cc(F)cc(F)c1)c1cc(C(=O)N(C)C)cc2c(=O)cc(N3CCOCC3)oc12 [AZD8186] (first compound max 1 µM, 7x7, partner max 3 µM)	KP-4 (Pancreatic Carcinoma)	0.421
